B1: PDZK1 (parent)
chain: RETASLKLLPHQPRIVEMKKGSNG

# Variants of: B1
# Assay protocol: protein stability index of a GFP-peptide fusion (GPS, HEK-293T) (PSI 1-6); higher = more stable;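 also: lentivirally expressed fusions sorted by FACS into six bins by GFP to DsRed ratio, PSI derived from sequencing read proportions per bin multiplied by bin number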
# Particulars: c terminus: a fixed tail appended
// FALSE strictly below 4 in protein stability index; TRUE otherwise

L9Q    FALSE
P10E    FALSE
A4Q    FALSE
Q12V    FALSE

Inquiry: Threshold query (protein stability index >= 4) on S5Y
Reply text: FALSE

Inquiry: Threshold query (protein stability index >= 4) on S5G
Reply text: FALSE

Inquiry: Threshold query (protein stability index >= 4) on R14N
Reply text: TRUE

Inquiry: Threshold query (protein stability index >= 4) on G21M
Reply text: FALSE

Inquiry: Threshold query (protein stability index >= 4) on I15E
Reply text: TRUE

Inquiry: Threshold query (protein stability index >= 4) on E2T
Reply text: FALSE

Inquiry: Threshold query (protein stability index >= 4) on P10G
Reply text: FALSE

Inquiry: Threshold query (protein stability index >= 4) on R14I
Reply text: FALSE

Inquiry: Threshold query (protein stability index >= 4) on P10Q
Reply text: FALSE

Inquiry: Threshold query (protein stability index >= 4) on P10A
Reply text: FALSE

Inquiry: Threshold query (protein stability index >= 4) on G24W
Reply text: FALSE

Inquiry: Threshold query (protein stability index >= 4) on S22E
Reply text: TRUE

Inquiry: Threshold query (protein stability index >= 4) on M18H
Reply text: TRUE

Inquiry: Threshold query (protein stability index >= 4) on S22T
Reply text: FALSE

Inquiry: Threshold query (protein stability index >= 4) on I15G
Reply text: TRUE

Inquiry: Threshold query (protein stability index >= 4) on L6D
Reply text: FALSE

Inquiry: Threshold query (protein stability index >= 4) on M18T
Reply text: TRUE

Inquiry: Threshold query (protein stability index >= 4) on I15N
Reply text: TRUE
